The measurements presented in this section are drawn from ChEMBL document CHEMBL4834439.

System: Caco-2
Assay: Antiproliferative activity against human Caco-2 cells assessed as reduction in cell viability after 48 hrs by MTT assay
Assay type: functional, cell-based
Conditions: Caco-2, 48 h
Could you please report measured pIC50 for the items listed next?
// pIC50 is dimensionless: -log10 of concentration (M)

Exercise: For the compound `COc1ccc(/C=C/c2nnc(-c3[nH]nc4c3Cc3cc(F)ccc3-4)o2)cc1OC` , what pIC50 is on record?
Solution: 4.73

Exercise: For the compound `COc1ccc(/C=C/c2nnc(-c3[nH]nc4c3Cc3cc(OC)c(OC)cc3-4)o2)cc1` , what pIC50 is on record?
Solution: 4.83

Exercise: For the compound `COc1ccc(/C=C/c2nnc(-c3[nH]nc4c3Cc3cc(OC)c(OC)cc3-4)o2)cc1OC` , what pIC50 is on record?
Solution: 4.64

Exercise: For the compound `COc1cc2c(cc1OC)-c1n[nH]c(-c3nnc(/C=C/c4ccccc4)o3)c1C2` , what pIC50 is on record?
Solution: 4.82

Exercise: For the compound `COc1cc(/C=C/c2nnc(-c3[nH]nc4c3Cc3cc(F)ccc3-4)o2)cc(OC)c1OC` , what pIC50 is on record?
Solution: 4.79

Exercise: For the compound `COc1ccc(/C=C/c2nnc(-c3[nH]nc4c3Cc3ccccc3-4)o2)cc1` , what pIC50 is on record?
Solution: 4.40

Exercise: For the compound `COc1cc(/C=C/c2nnc(-c3[nH]nc4c3Cc3ccccc3-4)o2)cc(OC)c1OC` , what pIC50 is on record?
Solution: 4.50

Exercise: For the compound `COc1ccc(/C=C/c2nnc(-c3[nH]nc4c3Cc3ccccc3-4)o2)cc1OC` , what pIC50 is on record?
Solution: 4.64

Exercise: For the compound `C(=C\c1nnc(-c2[nH]nc3c2Cc2ccccc2-3)o1)/c1ccccc1` , what pIC50 is on record?
Solution: 4.83

Exercise: For the compound `COc1ccc2c(c1)Cc1c-2n[nH]c1-c1nnc(/C=C/c2ccccc2)o1` , what pIC50 is on record?
Solution: 4.88

Exercise: For the compound `COc1cc2c(cc1OC)-c1n[nH]c(-c3nnc(/C=C/c4cc(OC)c(OC)c(OC)c4)o3)c1C2` , what pIC50 is on record?
Solution: 4.24

Exercise: For the compound `COc1ccc(/C=C/c2nnc(-c3[nH]nc4c3Cc3cc(OC)ccc3-4)o2)cc1` , what pIC50 is on record?
Solution: 4.97

Exercise: For the compound `Nc1ccn([C@@H]2O[C@H](CO)[C@@H](O)C2(F)F)c(=O)n1` , what pIC50 is on record?
Solution: 5.03

Exercise: For the compound `COc1ccc2c(c1)Cc1c-2n[nH]c1-c1nnc(/C=C/c2ccc([N+](=O)[O-])cc2)o1` , what pIC50 is on record?
Solution: 4.24

Exercise: For the compound `Fc1ccc2c(c1)Cc1c-2n[nH]c1-c1nnc(/C=C/c2ccccc2)o1` , what pIC50 is on record?
Solution: 4.80

Exercise: For the compound `O=[N+]([O-])c1ccc(/C=C/c2nnc(-c3[nH]nc4c3Cc3ccccc3-4)o2)cc1` , what pIC50 is on record?
Solution: 4.75

Exercise: For the compound `COc1ccc(/C=C/c2nnc(-c3[nH]nc4c3Cc3cc(F)ccc3-4)o2)cc1` , what pIC50 is on record?
Solution: 4.81

Exercise: For the compound `COc1cc2c(cc1OC)-c1n[nH]c(-c3nnc(/C=C/c4ccc([N+](=O)[O-])cc4)o3)c1C2` , what pIC50 is on record?
Solution: 4.70
